experiment: yeast display, Sf9 membrane polyspecificity reagent, FACS + sequencing; frameworks hold sequencing errors
OBSERVED PROPERTY: polyreactivity (PSR sort gate)

As a guide, the following entries are already answered.
SEQUENCE ENTRY | polyreactivity (PSR sort gate)
QVQIVESGGGLVQAGGSLRLSCAASGSSFTLYALGWYRQAPGKERELVAAISWSTTSTYYADSVKGRFTISRDNAKNTVYLQMNSLKPEDTAVYYCNARHWPLAYEYWGQGTQVTVSS | high polyreactivity
QVQLEESGGGLVQAGGSLRLSCAASGSTFWPYSMGWYRKATGKERELVAAITLRGGTTYYADSVKGRFTISRDNAMNTVYFQMNSLKPEDTAVYYCNADDYHYFSYDYWGQGTQVTVSS | low polyreactivity
QVQLVESGGGLVQAGGSLRLSCAASGFTFEKNAMGWDRQAPGKERELGAAISRGGSTYADSVKGRFTISRDNAKNTVHLQINSLKPEDTAVYYCAADTVYIFSSAINGEFGDWGQGTQVTVSS | low polyreactivity
QVQLVESGGGLVQAGGSLRLSCAASGNIFGFYTMGWYRQAPGKERELVAAIRSRGGSTNYADSVKGRFTISRDNAKNTVYIQMNSLKPEDTAVYYCNKDGTWLARAVTYADFDYWGQGTQVTVSS | low polyreactivity
QVQLVESGGGLVQAGGSLRLSCAASGRTFVRNAMGWYRQAPGKERELVAGITRSGGSTYYADSVKGRFTISRDNAKNTVYLQMNSLKPEDTAVYYCAKRYDVYVGTVRPYDYWGQGTQVTVSS | low polyreactivity

q: Value lookup for polyreactivity (PSR sort gate); key = QVQLVESGGGLVQARGSLRLSCAASGSTFVTYAMGWYRQAPGKERELVAAITWSGGGTYYADSVKGRFTISRDNAKNTVYLQMNSLKPEDTAVYYCNRPAAVGDEDYWGQGTQVTVSS
a: low polyreactivity

q: Value lookup for polyreactivity (PSR sort gate); key = QVQLVESGGGLVQAGGSLRLSCAASGSTFSVYAMGLYRQAPGKERELVPAITWSGGSTYYADSVKGRFTISRDNAKNTVYLQMNSLKPEDTAVYYCNAERWLATPTVPWYLYNYWGQGTQVTVSS
a: low polyreactivity

q: Value lookup for polyreactivity (PSR sort gate); key = QVQLVESGGGLVQAGGSLRLSCAASGRISPVYAMGWYRQAPGKERELVAAITSGGSTNYADSVKGRFTISRDNAQNTVYLQMNSLKPEDTAVYYCAVEGFSSAAYDFEYWGQGTQVTVSS
a: high polyreactivity

q: Value lookup for polyreactivity (PSR sort gate); key = QVQLVESGGGLVQAGGSLRLSCAASGFIFNAYAMGWYRQAPGKERELVAAISTRGSNTYYADSVKGRFTISRDNAKNTVYLQMNSLKPEDTAVYDCAARGYVTYSKSNYWGQGTQVTVSS
a: high polyreactivity

q: Value lookup for polyreactivity (PSR sort gate); key = QVQLVESGGGLVQAGGSLRLSCAASGSTFLPNAMGWYRQAPGKERELVATITFDGGSTYYADSVKGRFTISRDNAKNTVYLQMNSLKPEDTAVYYCNTVELYWRGYDYWGQGTQVTVSS
a: high polyreactivity

q: Value lookup for polyreactivity (PSR sort gate); key = QVQLQESGGGLVQAGGSLRLSCAASGNISVTGFMGWYRQAPGKERELVASIGIGGTTYYADSVKGRFSISRDNAKNTVYLQMNSLKPEDTAVYYCAARVIYYYGSGPYDYWGQGTQVTVSS
a: low polyreactivity

q: Value lookup for polyreactivity (PSR sort gate); key = QVQLVESGGGLVQAGRSLRLSCAASGSIFEYYAMGWSRQAPGKEWELVAAITESGGSTYYADSVKGRFHNFTRQCEEYRLFTDEQPETGRYRGLLLAADAESYQNDYALDYWGQGTQETVSS
a: low polyreactivity

q: Value lookup for polyreactivity (PSR sort gate); key = QFQLVESGGGLVQAGGSLRLSYAASGRTFSSYAMGWYRQAPGKERELVAAITKRGGNTYYADSVKGRFTISRDNAKNTVYLQMNSLKPEDTAVYYCAAGWERFRNYNYWGQGTQVTVSS
a: high polyreactivity

q: Value lookup for polyreactivity (PSR sort gate); key = QVQLVESGGGLVQAGGSLRLSCAASGSTFTIYDMGWSRQAPGKERELVASISQGAGSTYYADSVKGRFTISRDNAKNTVYLQMNSQKPEDTAVYYCAADWYQSYVFVYWEGEYWAQGTQVTVSS
a: high polyreactivity
